experimental.target: HA of influenza B virus B/Malaysia/2506/2004 (victoria) (influenza B virus B/Malaysia/2506/2004)
protocol: cell-based or functional assay
Threshold-based label: Neutralization (Ave IC50 ug/ml) under 0.08 µg/mL gives Condition met, Neutralization (Ave IC50 ug/ml) not under 0.08 µg/mL gives Condition not met.

- binder: "FBC-39 LSL (antibody, V domains shown) VH: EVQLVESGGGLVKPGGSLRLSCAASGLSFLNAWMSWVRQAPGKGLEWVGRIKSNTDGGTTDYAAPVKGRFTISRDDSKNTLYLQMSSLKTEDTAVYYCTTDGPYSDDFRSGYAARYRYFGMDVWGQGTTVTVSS VL: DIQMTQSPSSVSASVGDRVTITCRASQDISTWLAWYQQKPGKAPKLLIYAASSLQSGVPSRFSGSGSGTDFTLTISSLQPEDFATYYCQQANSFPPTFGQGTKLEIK"
  class.name: "Condition not met"
- binder: "FBC-39 FTL (antibody, V domains shown) VH: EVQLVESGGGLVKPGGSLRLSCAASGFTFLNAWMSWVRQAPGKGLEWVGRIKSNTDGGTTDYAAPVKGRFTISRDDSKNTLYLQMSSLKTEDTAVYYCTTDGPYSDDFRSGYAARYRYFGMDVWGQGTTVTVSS VL: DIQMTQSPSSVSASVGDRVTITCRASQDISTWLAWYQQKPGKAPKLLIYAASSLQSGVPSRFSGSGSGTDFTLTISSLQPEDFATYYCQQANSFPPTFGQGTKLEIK"
  class.name: "Condition met"
- binder: "FBD-94 (antibody, V domains shown) VH: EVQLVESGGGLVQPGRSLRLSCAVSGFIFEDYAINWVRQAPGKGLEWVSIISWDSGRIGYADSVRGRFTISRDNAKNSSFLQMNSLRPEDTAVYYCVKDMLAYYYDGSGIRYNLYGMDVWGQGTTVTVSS VL: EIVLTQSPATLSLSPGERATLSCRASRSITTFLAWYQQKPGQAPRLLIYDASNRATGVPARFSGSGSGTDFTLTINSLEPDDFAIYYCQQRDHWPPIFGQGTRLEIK"
  class.name: "Condition met"
- binder: "FBD-56 (antibody, V domains shown) VH: EVQLVESGGHLVQPGRSLRLSCAASGFTFEDYAMNWVRQAPGKGLEWVSVISWDSGRIGYADSVKGRFTISRDNAKNSSYLQMNSLRPEDTALYYCVRDMLAYYSDNSGKKYNVYGMDVWGQGTTVTVSS VL: EIVLTQSPATLSLSPGERATLSCRASQSVSTFLAWYQQKPGQAPRLLMYDASNRATGIPARFSGSGSGTDFTLTISSLEPEDFAIYYCQQRSHWPPIFGQGTRLEIK"
  class.name: "Condition met"
- binder: "FBC-39 FSL (antibody, V domains shown) VH: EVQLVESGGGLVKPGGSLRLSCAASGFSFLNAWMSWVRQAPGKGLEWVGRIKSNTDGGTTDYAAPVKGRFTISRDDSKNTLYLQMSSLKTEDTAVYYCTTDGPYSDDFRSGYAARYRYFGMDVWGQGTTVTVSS VL: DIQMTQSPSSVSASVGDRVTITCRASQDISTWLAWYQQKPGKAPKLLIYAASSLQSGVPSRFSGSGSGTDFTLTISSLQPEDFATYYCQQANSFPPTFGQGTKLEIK"
  class.name: "Condition met"

Where do the numbers come from? From patent US20250263470A1.
